- target under test: human ether-à-go-go-related gene (hERG) potassium channel (human)
- Sequence (Q12809 whole entry, looked up): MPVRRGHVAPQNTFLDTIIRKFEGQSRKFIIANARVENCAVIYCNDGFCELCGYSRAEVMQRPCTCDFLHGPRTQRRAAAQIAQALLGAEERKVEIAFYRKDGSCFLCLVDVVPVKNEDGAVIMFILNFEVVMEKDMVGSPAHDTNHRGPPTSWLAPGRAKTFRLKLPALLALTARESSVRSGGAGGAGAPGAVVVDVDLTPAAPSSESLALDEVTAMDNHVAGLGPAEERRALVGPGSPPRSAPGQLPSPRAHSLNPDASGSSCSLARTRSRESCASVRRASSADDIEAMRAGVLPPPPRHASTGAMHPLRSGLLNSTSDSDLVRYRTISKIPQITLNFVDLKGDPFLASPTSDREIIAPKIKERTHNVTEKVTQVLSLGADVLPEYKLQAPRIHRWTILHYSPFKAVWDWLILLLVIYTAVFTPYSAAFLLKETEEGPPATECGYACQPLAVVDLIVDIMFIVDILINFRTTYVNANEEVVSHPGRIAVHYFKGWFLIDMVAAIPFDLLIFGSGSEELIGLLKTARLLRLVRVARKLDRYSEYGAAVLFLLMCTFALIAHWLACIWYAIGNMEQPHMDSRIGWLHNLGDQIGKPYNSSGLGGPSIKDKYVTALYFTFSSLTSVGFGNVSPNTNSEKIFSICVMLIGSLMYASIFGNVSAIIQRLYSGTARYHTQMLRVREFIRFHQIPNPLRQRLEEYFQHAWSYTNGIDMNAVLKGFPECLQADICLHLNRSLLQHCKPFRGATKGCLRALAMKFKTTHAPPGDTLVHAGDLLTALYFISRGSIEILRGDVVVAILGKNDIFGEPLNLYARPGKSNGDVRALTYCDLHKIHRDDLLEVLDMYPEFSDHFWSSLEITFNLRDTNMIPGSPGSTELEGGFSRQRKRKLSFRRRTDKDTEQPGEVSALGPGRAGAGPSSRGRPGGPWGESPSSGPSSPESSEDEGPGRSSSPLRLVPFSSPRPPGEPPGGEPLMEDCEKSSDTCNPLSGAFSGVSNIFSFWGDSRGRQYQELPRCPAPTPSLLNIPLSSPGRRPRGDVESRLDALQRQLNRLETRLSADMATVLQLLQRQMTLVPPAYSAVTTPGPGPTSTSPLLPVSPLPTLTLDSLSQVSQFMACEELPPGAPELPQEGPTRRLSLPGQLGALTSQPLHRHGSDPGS
- procedure details: primary screen, population patch clamp on CHO cells stably expressing hERG; higher = less effect of the substance
- Description: Briefly, Chinese hamster ovary (CHO) cells stably expressing the hERG channel were dislodged from tissue culture flasks and dispensed into PPC plates. […] Small molecule effects on hERG current density were quantified by […].
The whole screen tested about 310,000 compounds, of which about 2,200 (0.71%) showed an effect of 50% or more. The effect is printed as a negative number. What follows is part of a selection rich in strong results, with near analogues and random picks from the rest.
property label: hERG current change (%, negative = inhibition) at 1uM (%)
A number alone suffices; assume %.

Param readout= hERG current change (%, negative = inhibition) at 1uM; system= human ether-à-go-go-related gene (hERG) potassium channel (human); entry= O=C(CN1CCN(c2ccc(O)cc2)CC1)Nc1ccc(SC(F)F)cc1 ; returns value.
-78.4

Param readout= hERG current change (%, negative = inhibition) at 1uM; system= human ether-à-go-go-related gene (hERG) potassium channel (human); entry= COCC(=O)N1CCCC(C(=O)c2ccc(-c3ccccc3)cc2)C1 (centres unmarked) ; returns value.
0.927

Param readout= hERG current change (%, negative = inhibition) at 1uM; system= human ether-à-go-go-related gene (hERG) potassium channel (human); entry= CCCN(CCC)CCCNC(=S)Nc1ccc2nc(N3CCCC3)cc(C)c2c1 ; returns value.
-14.5

Param readout= hERG current change (%, negative = inhibition) at 1uM; system= human ether-à-go-go-related gene (hERG) potassium channel (human); entry= NNC(=O)c1ccc(-c2ccccc2F)cc1 ; returns value.
14.8

Param readout= hERG current change (%, negative = inhibition) at 1uM; system= human ether-à-go-go-related gene (hERG) potassium channel (human); entry= COc1ccc(N2CCN(CC(=O)Nc3ccc(SC(F)F)cc3)CC2)cc1 ; returns value.
-35.8

====

- target under test: human ether-à-go-go-related gene (hERG) potassium channel (human)
- procedure details: primary screen, population patch clamp on CHO cells stably expressing hERG; higher = less effect of the substance
Out of some 310,000 compounds screened, about 2,200 (0.71%) showed an effect of 50% or more. The effect is printed as a negative number. The sample as a whole holds a higher share of strong results than the screen did.
property label: hERG current change (%, negative = inhibition) at 1uM (%)
A number alone suffices; assume %.

State the recorded hERG current change (%, negative = inhibition) at 1uM for this entry: CCCCc1nc(Cl)c(C#N)c2c1CCCC2
5.82

State the recorded hERG current change (%, negative = inhibition) at 1uM for this entry: Cc1ccc(C)c(N(C(=O)CNC(=O)c2ccco2)C(C(=O)NC2CCCCC2)c2ccncc2)c1 (stereo not drawn)
7.2

State the recorded hERG current change (%, negative = inhibition) at 1uM for this entry: CCC(C)N=C1Sc2nc3ccc(C)cc3cc2CN1CCOC (stereo not drawn)
-60.4

State the recorded hERG current change (%, negative = inhibition) at 1uM for this entry: CC(=O)N1CCc2cc(Br)cc(S(=O)(=O)CCC(=O)N3CCN(c4ccccn4)CC3)c21
6.2

State the recorded hERG current change (%, negative = inhibition) at 1uM for this entry: CSc1ccc(CN(C)CC(=O)NCc2ccccc2)cc1
-11.1

State the recorded hERG current change (%, negative = inhibition) at 1uM for this entry: CN1CC(C(=O)c2ccc(Cl)cc2)C(c2ccccc2)C1 (stereo not drawn)
6.78

State the recorded hERG current change (%, negative = inhibition) at 1uM for this entry: CCOc1ccc(CN(C)C(C)C(=O)NCCc2ccc(F)cc2)cc1 (stereo not drawn)
-57.1

State the recorded hERG current change (%, negative = inhibition) at 1uM for this entry: COc1cccc(CNC(=O)CCC2CCCN(C/C=C/c3ccccc3OC)C2)c1 (stereo not drawn)
-34.5

State the recorded hERG current change (%, negative = inhibition) at 1uM for this entry: CCOc1ccc(CCNC(=O)c2cc(C)nc3ccccc23)cc1OCC
-10.6

State the recorded hERG current change (%, negative = inhibition) at 1uM for this entry: CCC1CN(C(=O)N2CCC(C(=O)NCCc3ccccc3)CC2)c2ccccc2O1 (stereo not drawn)
8.85

State the recorded hERG current change (%, negative = inhibition) at 1uM for this entry: COc1cc(S(=O)(=O)N(Cc2cccnc2)Cc2ccco2)ccc1-n1cnnn1
-10.7

State the recorded hERG current change (%, negative = inhibition) at 1uM for this entry: Cl.Clc1ccc(OCCCCN2CCc3ccccc3C2)cc1
-8.64

State the recorded hERG current change (%, negative = inhibition) at 1uM for this entry: CN(CCc1ccccn1)Cc1ccc(Cl)c(Cl)c1
-0.903

State the recorded hERG current change (%, negative = inhibition) at 1uM for this entry: CC1CC(C)CN(CCCOc2ccccc2[N+](=O)[O-])C1.O=C(O)C(=O)O (stereo not drawn)
5.91

State the recorded hERG current change (%, negative = inhibition) at 1uM for this entry: CCOc1ccc(CN(C)C(C)C(=O)NCc2ccccc2)cc1 (stereo not drawn)
-21.7

State the recorded hERG current change (%, negative = inhibition) at 1uM for this entry: CC(C)n1c(N2CCN(C(=O)c3cccs3)CC2)nc2ccccc21
-26.9

State the recorded hERG current change (%, negative = inhibition) at 1uM for this entry: O=C(Nc1ccc2oc(-c3ccncc3)nc2c1)c1ccccc1F
7.55

State the recorded hERG current change (%, negative = inhibition) at 1uM for this entry: CC1CN(CCOc2ccc([N+](=O)[O-])cc2)CC(C)O1.O=C(O)C(=O)O (stereo not drawn)
-13.6

State the recorded hERG current change (%, negative = inhibition) at 1uM for this entry: CC1CN(CCCCOc2ccc(F)cc2)CC(C)O1.O=C(O)C(=O)O (stereo not drawn)
-4.39

State the recorded hERG current change (%, negative = inhibition) at 1uM for this entry: COc1ccccc1/C=C(/C(=O)OCC(=O)Nc1ccc(N(C)C)cc1)c1ccccc1
9.09

State the recorded hERG current change (%, negative = inhibition) at 1uM for this entry: CCCn1c(N2CCN(CC(=O)NCc3cccs3)CC2)nc2ccccc21
-62.7

State the recorded hERG current change (%, negative = inhibition) at 1uM for this entry: COc1ccccc1CNC(=O)C1(c2ccc(Cl)cc2)CC1
0.547

State the recorded hERG current change (%, negative = inhibition) at 1uM for this entry: CCOc1ccc(CN(C)CCc2ccccn2)cc1.O=C(O)C(=O)O
-58.8

State the recorded hERG current change (%, negative = inhibition) at 1uM for this entry: COc1cccc(CNC(=O)CCC2CCCN(c3cc(C)nc(N4CCCC4)n3)C2)c1 (stereo not drawn)
-74

State the recorded hERG current change (%, negative = inhibition) at 1uM for this entry: O=C(CCc1nnc(-c2ccccc2)o1)NCc1cc(F)ccc1F
0.576

State the recorded hERG current change (%, negative = inhibition) at 1uM for this entry: CCCn1c(N)c(C(=O)CN(C)CC(=O)Nc2c(Cl)cccc2Cl)c(=O)[nH]c1=O
0.55

State the recorded hERG current change (%, negative = inhibition) at 1uM for this entry: O=C(c1cccs1)N1CCN(c2nc3ccccc3s2)CC1
7.28

State the recorded hERG current change (%, negative = inhibition) at 1uM for this entry: CCOC(=O)c1c(NC(=O)c2cc(CC(C)C)on2)sc(C(C)=O)c1C
12.5

State the recorded hERG current change (%, negative = inhibition) at 1uM for this entry: O=C(CSc1ccc(-c2cccnc2)nn1)N1CCCCC1
14.1

State the recorded hERG current change (%, negative = inhibition) at 1uM for this entry: CC1CC(C)CN(CCOc2ccc(Br)cc2)C1.O=C(O)C(=O)O (stereo not drawn)
-12.4

State the recorded hERG current change (%, negative = inhibition) at 1uM for this entry: O=C(O)C1C2C=CC(C2)C1C(=O)NCc1ccoc1 (stereo not drawn)
14.3

State the recorded hERG current change (%, negative = inhibition) at 1uM for this entry: CCCn1c(SCc2ccccn2)nc2c1c(=O)n(C)c(=O)n2C
16.5

State the recorded hERG current change (%, negative = inhibition) at 1uM for this entry: CCCOc1ccc(OCCN2CCCC(C)C2)cc1.O=C(O)C(=O)O (stereo not drawn)
0.638
